Known melting point of a selection of compounds

Study these solved cases before continuing.
COMPOUND: CCCOC(OCCC)P(=O)(O)CCCN
melting point: 223 to 225 °C

COMPOUND: O=C1CC(=Cc2c[nH]c3ccccc23)C(=O)N1Cc1cc(C(F)(F)F)cc(C(F)(F)F)c1
melting point: 68 to 69 °C

COMPOUND: COc1cc(OCc2ccncc2)ccc1/C=C/c1cc(/C=C/c2cccc3[nH]ccc23)n[nH]1
melting point: 207 to 215 °C

COMPOUND: CCN1c2ncc(CCCc3ccccc3)cc2C(=O)N(C)c2cccnc21
melting point: 100 to 102 °C

COMPOUND: COc1nc(OC)nc(Oc2ccccc2C(=O)O)n1
melting point: 152 °C

query: Given CN(C)c1ccc(C(=O)C(O)c2cccc(F)c2)cc1 (stereo unspecified) , respond with its melting point.
result: 147 to 149 °C

Values were extracted from a melting point compilation (Tetko et al.; mined from patent text by program, amines drawn as free bases though some values may be those of a salt).
